Just for reference, patent US20150274719A1 is where these values come from.

SYSTEM: recombinant guanylate cyclase reporter cell line (Rattus norvegicus, UniProt P19686+P20595)
Construct: expressed in transfected cells; host or cells: recombinant reporter cell line
Sequence (P19686 whole entry): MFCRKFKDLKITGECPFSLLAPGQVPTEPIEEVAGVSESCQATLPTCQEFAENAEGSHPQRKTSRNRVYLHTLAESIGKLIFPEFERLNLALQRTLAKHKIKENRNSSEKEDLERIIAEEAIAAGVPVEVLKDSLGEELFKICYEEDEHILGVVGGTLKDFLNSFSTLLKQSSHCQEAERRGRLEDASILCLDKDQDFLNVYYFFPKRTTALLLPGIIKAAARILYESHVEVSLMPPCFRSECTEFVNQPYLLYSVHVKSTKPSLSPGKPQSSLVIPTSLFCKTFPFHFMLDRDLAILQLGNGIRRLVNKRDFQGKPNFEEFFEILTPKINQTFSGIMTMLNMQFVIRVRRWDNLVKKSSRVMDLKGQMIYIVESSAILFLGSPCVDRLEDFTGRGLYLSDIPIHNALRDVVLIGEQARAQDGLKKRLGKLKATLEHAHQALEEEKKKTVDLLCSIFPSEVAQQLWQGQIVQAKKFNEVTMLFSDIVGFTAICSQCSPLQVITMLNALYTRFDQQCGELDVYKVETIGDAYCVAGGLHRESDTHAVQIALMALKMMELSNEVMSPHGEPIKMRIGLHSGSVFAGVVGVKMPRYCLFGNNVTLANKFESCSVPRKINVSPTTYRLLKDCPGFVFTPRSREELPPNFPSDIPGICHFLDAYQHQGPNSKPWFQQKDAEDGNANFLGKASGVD
Sequence (P20595 whole entry): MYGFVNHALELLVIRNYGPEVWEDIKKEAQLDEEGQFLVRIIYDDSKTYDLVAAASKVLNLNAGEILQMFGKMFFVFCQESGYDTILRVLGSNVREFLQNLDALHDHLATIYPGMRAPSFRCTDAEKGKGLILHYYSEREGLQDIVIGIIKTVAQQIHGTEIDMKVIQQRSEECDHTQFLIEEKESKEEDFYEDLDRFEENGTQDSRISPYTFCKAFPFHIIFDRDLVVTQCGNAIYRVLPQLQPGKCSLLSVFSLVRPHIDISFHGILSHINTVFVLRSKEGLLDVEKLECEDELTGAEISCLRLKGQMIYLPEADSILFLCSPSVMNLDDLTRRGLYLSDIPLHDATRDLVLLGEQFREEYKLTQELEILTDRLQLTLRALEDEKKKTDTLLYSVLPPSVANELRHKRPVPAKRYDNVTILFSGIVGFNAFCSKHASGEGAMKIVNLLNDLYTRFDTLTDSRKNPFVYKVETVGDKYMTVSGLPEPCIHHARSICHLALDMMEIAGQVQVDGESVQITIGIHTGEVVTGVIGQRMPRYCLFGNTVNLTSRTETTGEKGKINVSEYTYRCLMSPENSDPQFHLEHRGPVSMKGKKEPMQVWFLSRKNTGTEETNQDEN
TEST_METHOD_NOTES: Action on recombinant guanylate cyclase reporter cell line
Format: cell-based
CONDITION_SUMMARY: in some cases mean values from individual determinations
PARAMETER: MEC (minimal effective concentration) (µM)

# COMPOUND, VALUE_UNITS, MEC (minimal effective concentration)
data = [
    ("COCC(C)(N)CNC(=O)c1c(C)nc2c(OCc3c(F)cccc3F)cccn12 (single isomer, unassigned) [Example 215]", "µM", 1.00),
    ("Cc1cc(OCc2c(F)cccc2F)c2nc(C)c(C(=O)NCC(N)C(C)C)n2c1 (single isomer, unassigned) [Example 223]", "µM", 0.30),
]

1. Cc1cc(OCc2c(F)cccc2F)c2nc(C)c(C(=O)NC3CCC(N)C3)n2c1 (single isomer, unassigned) [Example 309]
2. Cc1nc2c(OCc3c(F)cccc3F)cccn2c1C(=O)NCCC(C)(C)N
Q) Of the pair 1 and 2 , name the member with the lesser recorded MEC (minimal effective concentration). Label of pick, please.
A) 1
